assay: Plasma pharmacokinetics of BI 187004 after single oral doses (LC–MS/MS); conditions: male, human, plasma, po, 20 mg, BI 187004 plasma concentrations, 20 mg single oral, planned time 4 h, Min
measured quantity: concentration at 4 h
Write the numeric value and append its unit.

Reported concentration at 4 h for `N#Cc1ccc2c(c1)[C@H]1CCCN(C(=O)c3ccc4[nH]cnc4c3)[C@H]1C2` was 531 nM

====

assay: Plasma pharmacokinetics of BI 187004 after single oral doses (LC–MS/MS); settings: male, human, plasma, po, 160 mg, BI 187004 plasma concentrations, 160 mg single oral, planned time 2 h, Max
measured quantity: concentration at 2 h (µM)
Please reply with the bare figure in µM and do not write the unit itself.

Reported concentration at 2 h for `N#Cc1ccc2c(c1)[C@H]1CCCN(C(=O)c3ccc4[nH]cnc4c3)[C@H]1C2` was 8.64

====

experiment: Plasma pharmacokinetics of BI 187004 after single oral doses (LC–MS/MS); details: male, human, plasma, po, 80 mg, BI 187004 plasma concentrations, 80 mg single oral, planned time 96 h, Median
measured quantity: concentration at 96 h

Reported concentration at 96 h for N#Cc1ccc2c(c1)[C@H]1CCCN(C(=O)c3ccc4[nH]cnc4c3)[C@H]1C2 [BI 187004] was 23.8 nM

====

test: Plasma pharmacokinetics of BI 187004 after single oral doses (LC–MS/MS); conditions: male, human, plasma, po, 160 mg, BI 187004 plasma concentrations, 160 mg single oral, planned time 96 h, Median
measured quantity: concentration at 96 h (nM)
Please reply with the bare figure in nM and do not write the unit itself.

Reported concentration at 96 h for `N#Cc1ccc2c(c1)[C@H]1CCCN(C(=O)c3ccc4[nH]cnc4c3)[C@H]1C2` was 31.7

====

experiment: Plasma pharmacokinetics of BI 187004 after single oral doses (LC–MS/MS); settings: male, human, plasma, po, 10 mg, Plasma concentration Mean, 10 mg single oral; 5 h
measured quantity: concentration at 5 h (nM)
Please reply with the bare figure in nM and do not write the unit itself.

Reported concentration at 5 h for `N#Cc1ccc2c(c1)[C@H]1CCCN(C(=O)c3ccc4[nH]cnc4c3)[C@H]1C2` was 277

====

experiment: Plasma pharmacokinetics of BI 187004 after single oral doses (LC–MS/MS); details: male, human, plasma, po, 160 mg, BI 187004 plasma concentrations, 160 mg single oral, planned time 24 h, individual subjects
measured quantity: concentration at 24 h
Write the numeric value and append its unit.

Reported concentration at 24 h for `N#Cc1ccc2c(c1)[C@H]1CCCN(C(=O)c3ccc4[nH]cnc4c3)[C@H]1C2` was 1360 nM

====

test: Plasma pharmacokinetics of BI 187004 after single oral doses (LC–MS/MS); settings: male, human, plasma, po, 160 mg, BI 187004 plasma concentrations, 160 mg single oral, planned time 48 h, Min
measured quantity: concentration at 48 h (nM)
Please reply with the bare figure in nM and do not write the unit itself.

Reported concentration at 48 h for `N#Cc1ccc2c(c1)[C@H]1CCCN(C(=O)c3ccc4[nH]cnc4c3)[C@H]1C2` was 329

====

experiment: BI 187004 concentration in subcutaneous adipose tissue biopsies (LC–MS/MS); type: in vivo, human; details: male, human, subcutaneous adipose tissue, oral; 80 mg single dose; adipose tissue; 10 h; read-out: AT C10 gMean (range)
measured quantity: concentration at 10 h (nM)
Please reply with the bare figure in nM and do not write the unit itself.

Reported concentration at 10 h for `N#Cc1ccc2c(c1)[C@H]1CCCN(C(=O)c3ccc4[nH]cnc4c3)[C@H]1C2` was 128

====

experiment: Plasma pharmacokinetics of BI 187004 after single oral doses (LC–MS/MS); conditions: male, human, plasma, po, 240 mg, BI 187004 plasma concentrations, Median, 240 mg single oral, planned time 2 h
measured quantity: concentration at 2 h (µM)
Please reply with the bare figure in µM and do not write the unit itself.

Reported concentration at 2 h for N#Cc1ccc2c(c1)[C@H]1CCCN(C(=O)c3ccc4[nH]cnc4c3)[C@H]1C2 [BI 187004] was 6.78

====

assay: Plasma pharmacokinetics of BI 187004 after single oral doses (LC–MS/MS); details: male, human, plasma, po, 10 mg, C24 gMean (%gCV), 10 mg single oral dose
measured quantity: concentration at 24 h (nM)
Please reply with the bare figure in nM and do not write the unit itself.

Reported concentration at 24 h for `N#Cc1ccc2c(c1)[C@H]1CCCN(C(=O)c3ccc4[nH]cnc4c3)[C@H]1C2` was 71.3

====

assay: Plasma pharmacokinetics of BI 187004 after single oral doses (LC–MS/MS); conditions: male, human, plasma, po, 160 mg, BI 187004 plasma concentrations, 160 mg single oral, planned time 1.5 h, Mean
measured quantity: concentration at 1.5 h (µM)
Please reply with the bare figure in µM and do not write the unit itself.

Reported concentration at 1.5 h for `N#Cc1ccc2c(c1)[C@H]1CCCN(C(=O)c3ccc4[nH]cnc4c3)[C@H]1C2` was 7.28

====

assay: Plasma pharmacokinetics of BI 187004 after single oral doses (LC–MS/MS); settings: male, human, plasma, po, 40 mg, BI 187004 plasma concentrations, 40 mg single oral, planned time 6 h, gMean
measured quantity: concentration at 6 h (µM)
Please reply with the bare figure in µM and do not write the unit itself.

Reported concentration at 6 h for N#Cc1ccc2c(c1)[C@H]1CCCN(C(=O)c3ccc4[nH]cnc4c3)[C@H]1C2 [BI 187004] was 1.09

====

assay: Plasma pharmacokinetics of BI 187004 after single oral doses (LC–MS/MS); details: male, human, plasma, po, 40 mg, BI 187004 plasma concentrations, 40 mg single oral, planned time 72 h, gMean
measured quantity: concentration at 72 h (nM)
Please reply with the bare figure in nM and do not write the unit itself.

Reported concentration at 72 h for N#Cc1ccc2c(c1)[C@H]1CCCN(C(=O)c3ccc4[nH]cnc4c3)[C@H]1C2 [BI 187004] was 24.3

====

test: Plasma pharmacokinetics of BI 187004 after single oral doses (LC–MS/MS); settings: male, human, plasma, po, 240 mg, BI 187004 plasma concentrations, Max, 240 mg single oral, planned time 4 h
measured quantity: concentration at 4 h (µM)
Please reply with the bare figure in µM and do not write the unit itself.

Reported concentration at 4 h for `N#Cc1ccc2c(c1)[C@H]1CCCN(C(=O)c3ccc4[nH]cnc4c3)[C@H]1C2` was 8.42

====

assay: Plasma pharmacokinetics of BI 187004 after single oral doses (LC–MS/MS); details: male, human, plasma, po, 2.5 mg, Plasma concentration gMean, 2.5 mg single oral; 5 h
measured quantity: concentration at 5 h (nM)
Please reply with the bare figure in nM and do not write the unit itself.

Reported concentration at 5 h for `N#Cc1ccc2c(c1)[C@H]1CCCN(C(=O)c3ccc4[nH]cnc4c3)[C@H]1C2` was 6.61

====

assay: Plasma pharmacokinetics of BI 187004 after single oral doses (LC–MS/MS); conditions: male, human, plasma, po, 80 mg, BI 187004 plasma concentrations, 80 mg single oral, planned time 2.5 h, Max
measured quantity: concentration at 2.5 h (µM)
Please reply with the bare figure in µM and do not write the unit itself.

Reported concentration at 2.5 h for N#Cc1ccc2c(c1)[C@H]1CCCN(C(=O)c3ccc4[nH]cnc4c3)[C@H]1C2 [BI 187004] was 3.2

====

assay: Plasma pharmacokinetics of BI 187004 after single oral doses (LC–MS/MS); details: male, human, plasma, po, 80 mg, BI 187004 plasma concentrations, 80 mg single oral, planned time 5 h, Mean
measured quantity: concentration at 5 h (nM)
Please reply with the bare figure in nM and do not write the unit itself.

Reported concentration at 5 h for `N#Cc1ccc2c(c1)[C@H]1CCCN(C(=O)c3ccc4[nH]cnc4c3)[C@H]1C2` was 1980

====

assay: Plasma pharmacokinetics of BI 187004 after single oral doses (LC–MS/MS); settings: male, human, plasma, po, 160 mg, BI 187004 plasma concentrations, 160 mg single oral, planned time 6 h, Mean
measured quantity: concentration at 6 h (µM)
Please reply with the bare figure in µM and do not write the unit itself.

Reported concentration at 6 h for N#Cc1ccc2c(c1)[C@H]1CCCN(C(=O)c3ccc4[nH]cnc4c3)[C@H]1C2 [BI 187004] was 4.34
